molecular target: F508delCFTR (Homo sapiens, UniProt P13569, DEL508-508); construct: expressed in transfected cells; host or cells: CFBE41o- human lung-derived epithelial cells (CFBE4lo-F508delCFTR-HRP), doxycycline-inducible; assay: Cell Surface Expression-Horse Radish Peroxidase (CSE-HRP) Assay; assay type: cell-based; conditions: CSE-HRP; test compound without co-corrector; read-out: EC50 (without co-corrector)
Sequence (P13569 with tags, fused parts or gaps DEL508-508): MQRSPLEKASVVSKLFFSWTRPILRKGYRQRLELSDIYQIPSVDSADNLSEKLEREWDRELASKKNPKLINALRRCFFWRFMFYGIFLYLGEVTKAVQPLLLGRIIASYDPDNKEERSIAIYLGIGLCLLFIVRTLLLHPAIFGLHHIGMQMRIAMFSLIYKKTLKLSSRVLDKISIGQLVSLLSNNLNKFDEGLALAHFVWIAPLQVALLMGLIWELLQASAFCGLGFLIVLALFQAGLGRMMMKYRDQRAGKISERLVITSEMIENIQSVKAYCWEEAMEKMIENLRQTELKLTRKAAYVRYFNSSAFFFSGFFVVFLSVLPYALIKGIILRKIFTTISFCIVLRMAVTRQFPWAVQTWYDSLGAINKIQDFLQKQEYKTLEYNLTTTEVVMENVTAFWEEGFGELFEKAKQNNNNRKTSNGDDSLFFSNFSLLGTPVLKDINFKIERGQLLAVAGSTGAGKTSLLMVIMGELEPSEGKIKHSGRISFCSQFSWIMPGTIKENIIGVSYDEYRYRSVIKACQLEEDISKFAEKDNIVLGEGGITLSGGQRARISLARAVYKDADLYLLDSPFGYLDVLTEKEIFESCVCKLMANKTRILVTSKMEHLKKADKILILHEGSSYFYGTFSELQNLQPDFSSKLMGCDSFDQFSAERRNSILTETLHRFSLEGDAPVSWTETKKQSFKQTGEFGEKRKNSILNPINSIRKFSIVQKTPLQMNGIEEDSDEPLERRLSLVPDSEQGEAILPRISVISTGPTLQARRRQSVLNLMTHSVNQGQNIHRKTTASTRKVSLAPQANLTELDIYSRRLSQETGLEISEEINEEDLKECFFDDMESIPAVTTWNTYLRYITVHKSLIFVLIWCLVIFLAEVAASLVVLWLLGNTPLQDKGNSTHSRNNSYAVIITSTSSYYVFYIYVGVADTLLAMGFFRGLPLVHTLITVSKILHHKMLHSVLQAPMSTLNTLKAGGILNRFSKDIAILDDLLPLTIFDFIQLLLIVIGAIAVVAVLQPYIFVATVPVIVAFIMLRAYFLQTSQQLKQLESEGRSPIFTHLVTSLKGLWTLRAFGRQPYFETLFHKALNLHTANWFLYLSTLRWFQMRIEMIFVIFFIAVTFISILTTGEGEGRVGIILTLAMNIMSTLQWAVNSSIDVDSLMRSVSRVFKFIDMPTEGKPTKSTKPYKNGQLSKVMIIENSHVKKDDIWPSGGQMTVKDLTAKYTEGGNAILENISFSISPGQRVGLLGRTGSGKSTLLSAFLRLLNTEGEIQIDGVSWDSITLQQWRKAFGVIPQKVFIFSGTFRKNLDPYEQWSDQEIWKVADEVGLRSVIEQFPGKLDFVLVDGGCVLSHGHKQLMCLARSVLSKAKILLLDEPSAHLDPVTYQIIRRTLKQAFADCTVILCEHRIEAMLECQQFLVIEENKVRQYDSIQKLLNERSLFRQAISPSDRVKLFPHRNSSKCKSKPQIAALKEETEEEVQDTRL
pEC50: −log10 of the molar value.
experimental-endpoint: pEC50

Examples with answers:
COc1ccc(C(F)(F)F)cc1CN[C@H]1[C@H](C(C)(C)C)[C@@H](C(=O)O)N(C(=O)C2CCc3ccccc3O2)[C@H]1c1ccccc1 (stereo partly drawn) [II-163] : 5.00 to 6.00
COc1ccc(C(C)(C)C)cc1CN[C@H]1[C@H](C(C)(C)C)[C@@H](C(=O)O)N(C(=O)Cc2ccccc2Cl)[C@H]1c1ccccc1 [II-183] : > 6.00
COc1ccc(F)cc1CN[C@@H]1[C@@H](C(C)(C)C)[C@H](C(=O)O)N(C(=O)OC(C)C)[C@@H]1c1ccccc1 (racemic) [II-42] : 5.00 to 6.00
COc1ccc(C(C)(C)C)cc1CN[C@H]1[C@H](C(C)(C)C)[C@@H](C(=O)O)N(C(=O)C(C)Oc2cccc(F)c2)[C@H]1c1ccccc1 (stereo partly drawn) [II-305] : > 6.00
COc1cccc(-c2ccc(OC)c(CN[C@H]3[C@H](C(C)(C)C)[C@@H](C(=O)O)N(C(=O)C4CCCCC4)[C@H]3c3ccccc3)c2)c1 [II-277] : 5.00 to 6.00

Let us examine a further case.
Lookup: Would you mind telling me what pEC50 value was observed for COc1ccc(C(F)(F)F)cc1CN[C@@H]1[C@@H](C(C)(C)C)[C@H](C(=O)O)N(C(=O)OC(C)C)[C@@H]1c1ccccc1N(C)C (racemic) [II-56] ?
Found: 5.00 to 6.00

###

molecular target: F508delCFTR (Homo sapiens, UniProt P13569, DEL508-508); construct: expressed in transfected cells; host or cells: CFBE41o- human lung-derived epithelial cells (CFBE4lo-F508delCFTR-HRP), doxycycline-inducible; assay: Cell Surface Expression-Horse Radish Peroxidase (CSE-HRP) Assay; type: cell-based; details: CSE-HRP; test compound without co-corrector; read-out: EC50 (without co-corrector)
Below: a set of entries, each annotated with reported EC50.

Examples with answers:
COc1ccc(C2CC3CCC2C3)cc1CN[C@H]1[C@H](C(C)(C)C)[C@@H](C(=O)O)N(C(=O)C2CCCCC2)[C@H]1c1ccccc1 (stereo partly drawn) : < 1 µM
COc1ccc(C(C)C)cc1CN[C@H]1[C@H](C(C)(C)C)[C@@H](C(=O)O)N(C(=O)OC(C)C)[C@H]1c1ccccc1 : 1 to 10 µM

Lookup: Give the reported EC50 for CC(C)Oc1ccccc1CN[C@@H]1[C@@H](C(C)(C)C)[C@H](C(=O)O)N(C(=O)C2CCCCC2)[C@@H]1c1ccccc1 (racemic) (system: F508delCFTR (Homo sapiens, UniProt P13569, DEL508-508)).
Found: 1 to 10 µM

Lookup: Would you mind doing COc1ccc(C(C)(C)C)cc1CN[C@H]1[C@H](C(C)(C)C)[C@@H](C(=O)O)N(C(=O)C2Cc3ccccc3CO2)[C@H]1c1ccccc1 (stereo partly drawn) as well?
Found: < 1 µM

Lookup: Would you mind doing COc1cc(Cl)ccc1CN[C@@H]1[C@@H](C(C)(C)C)[C@H](C(=O)O)N(C(=O)C2CCOC(C)(C)C2)[C@@H]1c1ccccc1N(C)C (mixture of isomers) as well?
Found: 1 to 10 µM

Lookup: Would you mind doing COc1ccc(Cl)cc1CN[C@@H]1[C@@H](C2CC2)[C@H](C(=O)O)N(C(=O)C2CCCCC2)[C@@H]1c1ccccc1 (racemic) as well?
Found: 1 to 10 µM

Lookup: Would you mind doing COc1ccc(C2CCCC2)cc1CN[C@H]1[C@H](C(C)(C)OC)[C@@H](C(=O)O)N(C(=O)C2CCCCC2)[C@H]1c1ccccc1 as well?
Found: < 1 µM

Lookup: Would you mind doing COc1ccc(C(F)(F)F)cc1CN[C@@H]1[C@@H](C(C)(C)C)[C@H](C(=O)O)N(C(=O)[C@@H]2CCC[C@@H](OC)C2)[C@@H]1c1ccccc1 (racemic) as well?
Found: 1 to 10 µM

Lookup: Would you mind doing COc1ccc(C(C)(C)C)cc1CN[C@H]1[C@H](C(C)(C)C)[C@@H](C(=O)O)N(C(=O)CN2CCOCC2)[C@H]1c1ccccc1 as well?
Found: 1 to 10 µM

Lookup: Would you mind doing COc1ncc(C(F)(F)F)cc1CN[C@H]1[C@H](C(C)(C)C)[C@@H](C(=O)O)N(C(=O)C23CC(C2)C3)[C@H]1c1ccccc1C(C)C as well?
Found: 1 to 10 µM

Lookup: Would you mind doing COc1ccc(C(C)(C)C)cc1CN[C@H]1[C@H](C(C)(C)C)[C@@H](C(=O)O)N(C(=O)C(C)Oc2ccccc2Cl)[C@H]1c1ccccc1 (stereo partly drawn) as well?
Found: < 1 µM

Lookup: Would you mind doing COc1ccc(C(C)(C)C)cc1CN[C@H]1[C@H](C(C)(C)C)[C@@H](C(=O)O)N(C(=O)c2cc(C)nc(C)c2)[C@H]1c1ccccc1 as well?
Found: 1 to 10 µM

###

biological target: F508delCFTR (Homo sapiens, UniProt P13569, DEL508-508); construct: expressed in transfected cells; host or cells: CFBE41o- human lung-derived epithelial cells (CFBE4lo-F508delCFTR-HRP), doxycycline-inducible; assay: Cell Surface Expression-Horse Radish Peroxidase (CSE-HRP) Assay; format: cell-based; conditions: test compound without co-corrector; read-out: EC50 (without co-corrector)
experimental-endpoint: EC50

Examples with answers:
Cc1cc(C(F)(F)F)cc(N[C@@H]2[C@@H](C(C)(C)C)[C@H](C(=O)NS(=O)(=O)C3(C)CC3)N(C(=O)C3CCCCC3)[C@@H]2c2ccccc2)n1 (racemic) : 1 to 10 µM
O=C(O)[C@@H]1N(C(=O)C2CCCCC2)[C@H](c2ccccc2)[C@H](NCc2ccccc2OC(F)F)C12CC2 (racemic) : > 10 µM

Lookup: Give the reported EC50 for COc1ccc(C(C)(C)C)cc1CN[C@H]1[C@H](C(C)(C)C)[C@@H](C(=O)O)N(C(=O)[C@@H]2CCCCO2)[C@H]1c1ccccc1Br (system: F508delCFTR (Homo sapiens, UniProt P13569, DEL508-508)).
Found: 1 to 10 µM

Lookup: Would you mind doing COc1cccc(CN[C@@H]2[C@@H](C(C)(C)C)[C@H](C(=O)O)N(C(=O)C3CCCCC3)[C@@H]2c2ccccc2)c1 (racemic) as well?
Found: > 10 µM

Lookup: Would you mind doing COc1ccc(C(F)(F)F)cc1CN[C@H]1[C@H](C(C)(C)C)[C@@H](C(=O)O)N(C(=O)C2CCc3cc(C)ccc3O2)[C@H]1c1ccccc1 (stereo partly drawn) as well?
Found: 1 to 10 µM

Lookup: Would you mind doing COc1cc(C(F)(F)F)ccc1CN[C@H]1[C@H](C(C)(C)C)[C@@H](C(=O)O)N(C(=O)C2CCCCC2)[C@H]1c1cccnc1N(C)C as well?
Found: 1 to 10 µM

###

Biological target: F508delCFTR (Homo sapiens, UniProt P13569, DEL508-508)
Construct: expressed in transfected cells; host or cells: CFBE41o- human lung-derived epithelial cells (CFBE4lo-F508delCFTR-HRP), doxycycline-inducible
Assay: Cell Surface Expression-Horse Radish Peroxidase (CSE-HRP) Assay
Assay type: cell-based
Conditions: test compound without co-corrector; read-out: EC50 (without co-corrector)
Procedure: Cell Surface Expression-Horse Radish Peroxidase (CSE-HRP) Assay The development was achieved by expressing the F508delCFTR mutation along with a horseradish peroxidase (HRP) in the fourth exofacial loop, and then measuring the HRP activity using luminescence readout from these cells, CFBE4lo-F508delCFTR-HRP, that were incubated overnight with the test corrector compounds, either without or with the co-corrector. […] The raw counts from the experiment were analyzed using Accelrys® Assay Explorer v3.3. […]
pEC50: −log10 of the molar value.
Below: a set of entries, each annotated with reported pEC50.

COc1ccc(C2(C#N)CC2)cc1CN[C@H]1[C@H](C(C)(C)C)[C@@H](C(=O)O)N(C(=O)C2CCCCC2)[C@H]1c1ccccc1 : 5.00 to 6.00
COC1(CN[C@H]2[C@H](C(C)(C)C)[C@@H](C(=O)O)N(C(=O)C3CCCCC3)[C@H]2c2ccccc2)CCCCC1 : 5.00 to 6.00
COc1nc(C(C)(C)C)ccc1CN[C@H]1[C@H](C(C)(C)C)[C@@H](C(=O)O)N(C(=O)[C@@H]2CCCCO2)[C@H]1c1cccnc1N(C)C : 5.00 to 6.00
CC(C)(C)[C@H]1[C@H](NCc2cc(Cl)ccc2O)[C@H](c2ccccc2)N(C(=O)C2CCCCC2)[C@@H]1C(=O)O : < 5.00
COc1ccc(C2(C(F)(F)F)CC2)nc1CN[C@H]1[C@H](C(C)(C)C)[C@@H](C(=O)O)N(C(=O)C2CCCCC2)[C@H]1c1ccccc1 : 5.00 to 6.00
COc1ccc(C(F)(F)F)cc1CN[C@@H]1[C@@H](C(C)(C)C)[C@@H](C(=O)O)N(C(=O)[C@H](OC)c2ccccc2)[C@H]1c1ccccc1 : 5.00 to 6.00

Lookup: Would you mind telling me what pEC50 value was observed for COc1ccc(C(C)(C)C)cc1CN[C@H]1[C@H](C(C)(C)C)[C@@H](C(=O)O)N(C(=O)C(C)Oc2ccccc2F)[C@H]1c1ccccc1 (some centres unmarked) ?
Found: 5.00 to 6.00

Lookup: Would you mind doing COc1ccc(C(C)(C)C)cc1CN[C@H]1[C@H](C(C)(C)C)[C@@H](C(=O)O)N(C(=O)C(Oc2ccccc2C)C(C)C)[C@H]1c1ccccc1 (some centres unmarked) as well?
Found: 5.00 to 6.00

Lookup: Would you mind doing COc1cc(C(F)(F)F)cc(N[C@@H]2[C@@H](C(C)(C)C)[C@H](C(=O)O)N(C(=O)OC(C)C)[C@@H]2c2ccccc2)n1 (racemic) as well?
Found: 5.00 to 6.00

Lookup: Would you mind doing COc1ccncc1CN[C@@H]1[C@@H](C(C)(C)C)[C@H](C(=O)O)N(C(=O)C2CCCCC2)[C@@H]1c1ccccc1 (racemic) as well?
Found: < 5.00

Lookup: Would you mind doing COc1ncc(C2CCC2)cc1CN[C@H]1[C@H](C(C)(C)C)[C@@H](C(=O)O)N(C(=O)[C@@H]2CCCCO2)[C@H]1c1ccccc1C(C)C as well?
Found: > 6.00

Values were extracted from patent US20180099931A1.
